EXPERIMENTAL TARGET: recombinant human PDK1 (Homo sapiens, UniProt O15530)
Construct: containing amino acids 51-556 of the human PDK1 enzyme; made in house; host or cells: Sf9 insect cells
Sequence (O15530 51-556): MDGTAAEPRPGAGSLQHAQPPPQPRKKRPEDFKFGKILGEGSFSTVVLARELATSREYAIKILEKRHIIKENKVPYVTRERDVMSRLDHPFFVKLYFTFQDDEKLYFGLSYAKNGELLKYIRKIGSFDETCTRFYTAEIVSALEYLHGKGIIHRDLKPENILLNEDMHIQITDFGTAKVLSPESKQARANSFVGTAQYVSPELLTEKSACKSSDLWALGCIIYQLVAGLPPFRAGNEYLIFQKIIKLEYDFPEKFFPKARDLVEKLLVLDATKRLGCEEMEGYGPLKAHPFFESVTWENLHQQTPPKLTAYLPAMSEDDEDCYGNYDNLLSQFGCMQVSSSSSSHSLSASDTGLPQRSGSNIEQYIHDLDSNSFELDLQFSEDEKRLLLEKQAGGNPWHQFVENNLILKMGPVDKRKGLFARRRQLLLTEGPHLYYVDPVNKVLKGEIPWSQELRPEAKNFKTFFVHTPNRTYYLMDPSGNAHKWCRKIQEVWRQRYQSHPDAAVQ
MEASUREMENT NOTES: PDK1 IMAP fluorescence polarization assay (inhibition of peptide substrate phosphorylation)
Format: biochemical
TEST PARAMETERS: Table 6; 10 nM PDK1 enzyme, 100 nM peptide substrate, 100 nM PIFtide, 2.5 uM ATP, 1.5 hours
READOUT TYPE: IC50

Given the compound Cc1cc(-c2c[nH]c(C(=O)Nc3cccc(F)c3N3CCC(C(=O)N4CCOC(C(C)N)C4)CC3)n2)ccn1 (stereo not drawn) [Compound 95] , what is its reported IC50?
251 to 1000 nM

Try this compound too: NCC1CCN(c2c(F)cccc2NC(=O)c2nc(-c3cc(C(F)(F)F)n[nH]3)c[nH]2)CC1 [Compound 48]
251 to 1000 nM

Entry to check: Cc1cc(-c2c[nH]c(C(=O)Nc3cccc(F)c3N3CCC(C(=O)N[C@H](C)c4ccccc4)CC3)n2)ccn1 [Compound 65]
1000 to 5000 nM

NCC1CCN(c2c(F)cccc2NC(=O)c2nc(-c3cc(N[C@@H](CO)c4ccccc4)nc(N)n3)c[nH]2)CC1 [Compound 72] , same question.
1 to 50 nM

One more compound: Cc1nc(N)cc(-c2c[nH]c(C(=O)Nc3cccc(F)c3N3CCC(CN)CC3)n2)n1 [Compound 49]
51 to 250 nM

Now try NCC1CCN(c2c(F)cccc2NC(=O)c2nc(-c3cc(NCc4ccc(C(F)(F)F)cc4)nc(N)n3)c[nH]2)CC1 [Compound 70] .
51 to 250 nM

Then CNCC1CCN(c2c(F)cccc2NC(=O)c2nc(-c3ccnc(C)c3)c[nH]2)CC1 [Compound 57] ?
251 to 1000 nM

// query: CNCCCCNC(=O)C1CCN(c2c(F)cccc2NC(=O)c2nc(-c3ccnc(C)c3)c[nH]2)CC1 [Compound 85]
251 to 1000 nM

Field entry: NC(=O)N[C@@H]1CCCN(c2c(F)cccc2NC(=O)c2nc(Br)c[nH]2)C1 [Compound 15]
1000 to 5000 nM

Similarly, Cc1cc(-c2c[nH]c(C(=O)Nc3cccc(F)c3N3CC4CCC(C3)N4)n2)ccn1 [Compound 54] ?
1000 to 5000 nM

Now the compound NCC1CCN(c2c(F)cccc2NC(=O)c2nc(-c3cc(N[C@H](CO)c4ccccc4)nc(N)n3)c[nH]2)CC1 [Compound 77]
1 to 50 nM

// same read-out, input: NCC1CCN(c2c(F)cccc2NC(=O)c2nc(-c3ccnc(NCc4ccccc4)c3)c[nH]2)CC1 [Compound 35]
1 to 50 nM

Try this compound too: N[C@@H]1CCCN(c2c(F)cccc2NC(=O)c2nc(-c3ccnc(O)c3)c[nH]2)C1 [Compound 25]
1000 to 5000 nM

What do we get for Cc1cc(-c2c[nH]c(C(=O)Nc3cccc(F)c3N3CCC(CN)CC3)n2)ccn1 [Compound 18] ?
1 to 50 nM

Then Cc1cc(-c2c[nH]c(C(=O)Nc3cccc(F)c3N3CCC4CCNC4C3)n2)ccn1 (stereo not drawn) [Compound 43] ?
51 to 250 nM

Provenance of the data: patent US8623857B2
